Tested on: ECHCG (Barnyardgrass)
assay.summary: Postemergence herbicidal evaluation
Format: in vivo, Echinochloa crus-galli
assay.setup: Rate 0.0158 kg/ha
Method: In the tests, seedling plants are grown in jiffy flats for about two weeks. The test compounds are dispersed in 50/50 acetone/water mixtures containing 0.5% TWEEN®20, a polyoxyethylene sorbitan monolaurate surfactant of Atlas Chemical Industries, in sufficient quantities to provide the equivalent of about 0.0156 kg to 0.500 kg per hectare of active compound when applied to the plants through a spray nozzle operating at 40 psi for a predetermined time. […]

| compound | Postemergence herbicidal rating ECHCG |
| --- | --- |
| Cn1c(C(F)(F)F)cc(=O)n(-c2cc(N=C3SCC(=O)N3CC(=O)OC(C)(C)C)c(Cl)cc2F)c1=O | 0.0 |
| CCOC(=O)CN1C(=O)C(CC(=O)OC)S/C1=N/c1cc(-n2c(=O)cc(C(F)(F)F)n(C)c2=O)c(F)cc1Cl (centres unmarked) | 9.0 |
| CCOC(=O)CN1C(=O)C(Cc2ccccc2OC)SC1=Nc1cc(-n2c(=O)cc(C(F)(F)F)n(C)c2=O)c(F)cc1Cl (centres unmarked) | 0.0 |
| C[C@@H](C(=O)O)N1C(=O)CS/C1=N/c1cc(-n2c(=O)cc(C(F)(F)F)n(C)c2=O)c(F)cc1Cl | 4.0 |
| CCOC(=O)CN1CC(=O)N(CC(=O)OCC)C1=Nc1cc(-n2c(=O)cc(C(F)(F)F)n(C)c2=O)c(F)cc1Cl | 0.0 |

====

Tested on: TRZAWR (Wheat, Winter, cv Riband)
assay.summary: Postemergence herbicidal evaluation
Format: in vivo, Triticum aestivum
assay.setup: postemergence, rate 0.0625 kg/ha

| molecule | Herbicidal rating TRZAWR |
| --- | --- |
| Cn1c(C(F)(F)F)cc(=O)n(-c2cc(N=C3SCC(=O)N3Cc3ccncc3)c(Cl)cc2F)c1=O [Compound 133] | 3.5 |
| Cc1ccccc1CN1C(=O)CSC1=Nc1cc(-n2c(=O)cc(C(F)(F)F)n(C)c2=O)c(F)cc1Cl [Compound 129] | 3.5 |
| CN1C(=O)C(CC(=O)NS(=O)(=O)c2ccccc2)SC1=Nc1cc(-n2c(=O)cc(C(F)(F)F)n(C)c2=O)c(F)cc1Cl (stereo not shown) [Compound 102] | 4.5 |
| CC(C)S(=O)(=O)NC(=O)CC1SC(=Nc2cc(-n3c(=O)cc(C(F)(F)F)n(C)c3=O)c(F)cc2Cl)N(C)C1=O (stereo not shown) [Compound 119] | 3.5 |
| CC(C)COC(=O)CN1C(=O)CSC1=Nc1cc(-n2c(=O)cc(C(F)(F)F)n(C)c2=O)c(F)cc1Cl [Compound 121] | 5.0 |
| CCOC(=O)CN1C(=O)C(C(=O)OC(C)(C)C)SC1=Nc1cc(-n2c(=O)cc(C(F)(F)F)n(C)c2=O)c(F)cc1Cl (stereo not shown) [Compound 167] | 4.0 |
| Cn1c(C(F)(F)F)cc(=O)n(-c2cc(N=C3SCC(=O)N3Cc3ccccn3)c(Cl)cc2F)c1=O [Compound 131] | 3.0 |
| Cn1c(C(F)(F)F)cc(=O)n(-c2cc(N=C3SCC(=O)N3Cc3ccc(Cl)c(Cl)c3)c(Cl)cc2F)c1=O [Compound 144] | 4.0 |
| CCN1C(=O)CSC1=Nc1cc(-n2c(=O)cc(C(F)(F)F)n(C)c2=O)c(F)cc1Cl [Compound 159] | 3.5 |
| CCOC(=O)CN1C(=O)C(COC)SC1=Nc1cc(-n2c(=O)cc(C(F)(F)F)n(C)c2=O)c(F)cc1Cl (stereo not shown) [Compound 156] | 4.0 |
| Cn1c(C(F)(F)F)cc(=O)n(-c2cc(N=C3SCC(=O)N3Cc3ccc(F)cc3)c(Cl)cc2F)c1=O [Compound 151] | 4.0 |
| Cn1c(C(F)(F)F)cc(=O)n(-c2cc(N=C3SCC(=O)N3Cc3cccnc3)c(Cl)cc2F)c1=O [Compound 132] | 4.0 |
| C=C1SC(=Nc2cc(-n3c(=O)cc(C(F)(F)F)n(C)c3=O)c(F)cc2Cl)N(CC(=O)OCC)C1=O [Compound 154] | 4.0 |
